Just for reference, patent EP1057484A1 is where these values come from.

system: Porcine ovarian granulosa cells (POGC); test: Test Example 1: inhibition of SNP-induced apoptosis of porcine ovarian granulosa cells; type: cell-based; conditions: Sus scrofa; for complete inhibition of apoptosis; SNP 0.5 mM; cells observed after 48 hours; read-out: Minimum effective concentration
Measured minimal effective concentration accompanies every entry in the list below.
The figure you give is taken to be in µM; do not add the unit.

>  <Smiles>
CN1C(=O)C(Br)=C(c2cn(C(=O)OC(C)(C)C)c3ccc(Cl)cc23)C1=O

>  <Units Symbol>
µM

>  <minimal effective concentration>
7

$$$$
>  <Smiles>
Cc1cccc2c(C3=C(Br)C(=O)N(C)C3=O)cn(C(=O)OC(C)(C)C)c12

>  <Units Symbol>
µM

>  <minimal effective concentration>
7

$$$$
>  <Smiles>
CN1C(=O)C(Br)=C(c2c[nH]c3ccc(Cl)cc23)C1=O

>  <Units Symbol>
µM

>  <minimal effective concentration>
15

$$$$
>  <Smiles>
CN1C(=O)C(Br)=C(c2cn(C(=O)OC(C)(C)C)c3ccccc23)C1=O

>  <Units Symbol>
µM

>  <minimal effective concentration>
10

$$$$
>  <Smiles>
Cc1cccc2c(C3=C(Br)C(=O)N(C)C3=O)c[nH]c12

>  <Units Symbol>
µM

>  <minimal effective concentration>
10

$$$$

Entry Cc1ccc2[nH]cc(C3=C(Br)C(=O)N(C)C3=O)c2c1 — recorded minimal effective concentration = 3

Notebook: Cc1ccc2c(c1)c(C1=C(Br)C(=O)N(C)C1=O)cn2C(=O)OC(C)(C)C , minimal effective concentration read as 3
